System: MCF7 breast
ASSAY DETAILS: NCI tumour cell line growth inhibition, 48 h
Each entry below carries its recorded TGI.

Below, 3 compounds whose answers are already recorded.
# COMPOUND, MEASURED RESULT
data = [
    ("COc1cc2c(cc1OC)C(=O)/C(=C/c1ccc(Cl)cc1)CC2", "> 10 µM"),
    ("CCC(C)C1=C(OC(C)=O)[N+]2([O-])Oc3ccc(-c4c(OC(C)=O)c(OC(C)=O)c(-c5ccc(OC(C)=O)cc5)c(OC(C)=O)c4OC(C)=O)cc3OC2(C(C)CC)C(=O)N1OC(C)=O (stereo not drawn)", "> 50 µM"),
    ("CCOP(=O)(OCC)C(C)(CC)N/C(=N/C(NC(C)=O)(C(F)(F)F)C(F)(F)F)NC1=NC(C(F)(F)F)(C(F)(F)F)N=C(C(F)(F)F)O1 (stereo not drawn)", "68.8 µM"),
]

Challenge: Item CC(=O)O[C@H]1[C@@H]2OC(=O)[C@@](O)(CC3CCCO3)[C@@H]2CC(=O)[C@](C)(O)CC/C=C(\C)CCC[C@@H]1C (stereo partly drawn) has what recorded TGI?
Response given: > 100 µM

Challenge: Item Cc1cc(Cl)ccc1Nc1nc(C(F)(F)F)ccc1C(=O)N/N=C/c1ccc(Cl)cc1 has what recorded TGI?
Response given: 4.7 µM

Challenge: Item CCCc1cc(=O)[nH]c(-n2nc(C)cc2C)n1 has what recorded TGI?
Response given: > 100 µM

Challenge: Item Cc1nn(-c2ccccc2)c(C)c1/C=N/N=C1\SCC(=O)N1c1ccccc1 has what recorded TGI?
Response given: > 100 µM

Challenge: Item CC(C)(C)OC(=O)N1CCC(C(=O)O)CC1 has what recorded TGI?
Response given: > 100 µM
